test_system: JAK2 (Homo sapiens)
Construct: host or cells: baculovirus expression system
experiment_summary: Recombinant Human JAK2 Kinase Assay (TRF)
Assay type: biochemical
particulars: JAK2 kinase inhibition, 0.2 μM ATP; read-out: JAK2 Potency
Measured IC50, listed per entry for reference.
metric_name: IC50

>>> reported_result("COc1cc2c(cc1Nc1ncc3ccc(-c4ccccc4N(C)S(C)(=O)=O)n3n1)CN(C)C2")
"100 to 1000 nM"
>>> reported_result("CN1CCN(c2ccc(Nc3ncc4cc(-c5ccccc5OCC#N)cn4n3)cc2)CC1")
"100 to 1000 nM"
>>> reported_result("O=S(=O)(CC1CC1)c1cccc(-c2ccc3cnc(Nc4ccc5nc[nH]c5c4)nn23)c1")
"< 100 nM"
>>> reported_result("COc1ccc(-c2ccc3cnc(Nc4cccc(NC(=O)[C@@H](C)OC)c4)nn23)cn1")
"< 100 nM"
>>> reported_result("Cc1cc(Nc2ncc3ccc(-c4ccc(S(C)(=O)=O)cc4)n3n2)ccc1C1CCN(C)CC1")
"< 100 nM"
>>> reported_result("CC(C)(C)NS(=O)(=O)c1cccc(-c2ccc3cnc(Nc4ccc5c(c4)CS(=O)(=O)C5)nn23)c1")
"< 100 nM"
>>> reported_result("COc1cc(N2CCC(N3CC[C@@H](O)C3)CC2)ccc1Nc1ncc2ccc(-c3ccccc3OC)n2n1")
"< 100 nM"
>>> reported_result("COc1cc(C2CCN(CC(N)=O)CC2)ccc1Nc1ncc2ccc(-c3cccc(S(=O)(=O)NC(C)(C)C)c3)n2n1")
"100 to 1000 nM"
>>> reported_result("Cn1cnc2cc(Nc3ncc4ccc(-c5cccc(S(=O)(=O)NC(C)(C)C)c5)n4n3)ccc21")
"< 100 nM"

----------
Measured IC50, listed per entry for reference.
test_system: JAK2 (Homo sapiens)
Construct: host or cells: baculovirus expression system
experiment_summary: Recombinant Human JAK2 Kinase Assay (TRF)
Type: biochemical
particulars: JAK2 kinase inhibition, 0.2 μM ATP; read-out: JAK2 Potency
metric_name: IC50

>>> reported_result("CC(C)(C)NS(=O)(=O)c1cccc(-c2ccc3cnc(Nc4ccc(N5CCOCC5)cc4)nn23)c1 [Example 561]")
"< 100 nM"
>>> reported_result("COc1cc(-c2cccnc2)ccc1Nc1ncc2ccc(-c3ccccc3N(C)S(C)(=O)=O)n2n1 [Example 808]")
"> 10000 nM"
>>> reported_result("CCN1CCOC(c2ccc(Nc3ncc4ccc(-c5cnn(C)c5)n4n3)cc2)C1 (centres unmarked) [Example 1189]")
"< 100 nM"
>>> reported_result("COc1cc2c(cc1Nc1ncc3ccc(-c4ccccc4N(C)S(C)(=O)=O)n3n1)CN(CC(N)=O)C2 [Example 869]")
"100 to 1000 nM"
>>> reported_result("CN(C)c1cccc(CNc2ncc3c(-c4ccc(F)cc4)ccn3n2)c1 [Example 729]")
"1000 to 10000 nM"
>>> reported_result("COc1cc(C2CCN(CC(N)=O)CC2)ccc1Nc1ncc2ccc(-c3ccc(C)cc3N(C)S(C)(=O)=O)n2n1 [Example 1280]")
"100 to 1000 nM"
>>> reported_result("COc1cc(CCN2CCOCC2)ccc1Nc1ncc2ccc(-c3ccccc3N(C)S(C)(=O)=O)n2n1 [Example 493]")
"100 to 1000 nM"
>>> reported_result("COc1cc(N2CCC(NCCO)CC2)ccc1Nc1ncc2ccc(-c3ccccc3OC)n2n1 [Example 797]")
"< 100 nM"

----------
test_system: JAK2 (Homo sapiens, UniProt O60674)
Construct: host or cells: baculovirus expression system
Sequence (O60674 whole entry): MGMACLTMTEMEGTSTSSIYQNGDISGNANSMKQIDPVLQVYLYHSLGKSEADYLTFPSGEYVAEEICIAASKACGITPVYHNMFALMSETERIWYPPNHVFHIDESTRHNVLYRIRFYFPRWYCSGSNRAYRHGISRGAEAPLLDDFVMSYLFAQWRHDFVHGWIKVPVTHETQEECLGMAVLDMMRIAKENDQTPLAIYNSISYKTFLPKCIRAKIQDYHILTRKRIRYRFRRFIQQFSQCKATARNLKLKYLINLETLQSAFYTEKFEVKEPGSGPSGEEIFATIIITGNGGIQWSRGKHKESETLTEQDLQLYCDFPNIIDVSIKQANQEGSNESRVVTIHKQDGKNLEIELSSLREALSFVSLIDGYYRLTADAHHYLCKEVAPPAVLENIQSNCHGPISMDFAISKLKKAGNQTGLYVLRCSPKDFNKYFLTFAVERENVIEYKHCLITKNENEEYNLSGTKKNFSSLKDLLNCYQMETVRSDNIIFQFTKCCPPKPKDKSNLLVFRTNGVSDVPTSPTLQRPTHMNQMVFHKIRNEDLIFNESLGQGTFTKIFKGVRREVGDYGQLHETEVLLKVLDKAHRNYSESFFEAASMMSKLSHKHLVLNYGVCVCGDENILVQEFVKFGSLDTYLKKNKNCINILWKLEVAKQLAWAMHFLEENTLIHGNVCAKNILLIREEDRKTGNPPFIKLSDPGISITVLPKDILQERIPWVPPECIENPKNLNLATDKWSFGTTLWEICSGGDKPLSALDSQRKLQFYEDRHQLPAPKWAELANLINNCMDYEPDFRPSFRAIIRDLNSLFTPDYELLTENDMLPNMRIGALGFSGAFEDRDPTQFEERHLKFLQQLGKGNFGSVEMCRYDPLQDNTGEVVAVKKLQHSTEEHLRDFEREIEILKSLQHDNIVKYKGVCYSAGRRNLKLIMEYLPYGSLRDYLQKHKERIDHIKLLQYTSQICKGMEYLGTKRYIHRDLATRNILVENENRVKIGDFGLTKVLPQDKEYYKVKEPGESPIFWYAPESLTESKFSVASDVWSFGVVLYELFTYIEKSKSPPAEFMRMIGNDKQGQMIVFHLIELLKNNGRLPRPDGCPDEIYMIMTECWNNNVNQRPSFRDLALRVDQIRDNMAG
experiment_summary: Recombinant Human JAK2 Kinase Assay (TRF)
Assay type: biochemical
particulars: JAK2 Kinase Inhibition; read-out: JAK2 Potency
Procedure: Compounds were tested for their ability to inhibit the kinase activity of baculovirus-expressed JAK2 using the TRF detection system. […] The plates were coated first with 100 μL/well of 10 μg/mL Neutravidin (Pierce #31000, Rockford, Ill.) in TBS at 37° C. for 2 hours, followed by 100 μL/well of 1 μg/mL 15-mer peptide substrate (biotinyl-amino-hexanoyl-[…]-amide, Infinity Biotech Research and Resource, Aston, Pa.) at 37° C. for another hour. […]
pIC50: −log10 of the molar value.
Measured pIC50, listed per entry for reference.
metric_name: pIC50

>>> reported_result("O=C(NCCN1CCCC1)c1ccc(-c2ccc3cnc(Nc4ccc(N5CCOCC5)cc4)nn23)cc1 [Example 53]")
"> 7.00"
>>> reported_result("COc1cccc(Nc2ncc3cc4ccccc4n3n2)c1 [Example 272]")
"> 7.00"
>>> reported_result("CN1CCN(C2CCCN(c3ccc(Nc4ncc5ccc(-c6cccc(Cl)c6)n5n4)cc3)C2)CC1 (stereo not shown) [Example 350]")
"> 7.00"
>>> reported_result("COc1cc(N2CCCC(N3CCN(C)CC3)C2)ccc1Nc1ncc2ccc(-c3ccccc3OC)n2n1 (single isomer, unassigned) [Example 1441]")
"> 7.00"
>>> reported_result("COCCN1CCc2ccc(Nc3ncc4ccc(-c5ccccc5)n4n3)cc2CC1 [Example 9]")
"> 7.00"
>>> reported_result("COc1ccccc1-c1ccc2cnc(Nc3ccc4c(c3OC)CCC(N3CCOCC3)CC4)nn12 (stereo not shown) [Example 1452]")
"6.00 to 7.00"
>>> reported_result("COc1ccccc1-c1ccc2cnc(Nc3ccc(N4CCCC(C(=O)N5CCN(C)CC5)C4)cc3)nn12 (stereo not shown) [Example 443]")
"> 7.00"
>>> reported_result("COc1ccc(-c2ccc3cnc(Nc4ccc(F)c(N5CCOCC5)c4)nn23)cn1 [Example 392]")
"> 7.00"
>>> reported_result("COc1ccccc1-c1ccc2cnc(Nc3ccc(N4CCC(N5CCOCC5)CC4)cc3)nn12 [Example 334]")
"> 7.00"
>>> reported_result("COCC(C)Oc1ncc2ccc(-c3ccc(S(C)(=O)=O)cc3)n2n1 (stereo not shown) [Example 113]")
"5.00 to 6.00"
>>> reported_result("COc1ccc(-c2ccc3cnc(Nc4ccc5nc(CN6CCN(CCO)CC6)[nH]c5c4)nn23)cn1 [Example 1523]")
"> 7.00"
>>> reported_result("CC(=O)Nc1cccc(Nc2ncc3ccc(-c4cccc(S(=O)(=O)NC(C)(C)C)c4)n3n2)c1 [Example 1368]")
"> 7.00"
>>> reported_result("CN1CCN(c2ccc(Nc3ncc4ccc(-c5cccc(NS(C)(=O)=O)c5)n4n3)cc2)CC1 [Example 379]")
"> 7.00"
>>> reported_result("COc1cc(N2CCC(N3CCOCC3)CC2)ccc1Nc1ncc2ccc(-c3ccccc3C(C)=O)n2n1 [Example 1454]")
"6.00 to 7.00"
>>> reported_result("COc1ccc(-c2ccc3cnc(Nc4ccc5c(c4)CC(=O)N5C)nn23)cn1 [Example 384]")
"> 7.00"
>>> reported_result("CN1CCN(C(=O)c2cccc(Nc3ncc4ccc(-c5cccnc5)n4n3)c2)CC1 [Example 341]")
"> 7.00"
>>> reported_result("COc1cc(N2CCN(C3CCOCC3)CC2)ccc1Nc1ncc2ccc(-c3ccccc3OC)n2n1 [Example 1472]")
"> 7.00"
>>> reported_result("OCCN1CCN(c2ccc(Nc3ncc4ccc(-c5cccnc5)n4n3)cc2)CC1 [Example 115]")
"> 7.00"
>>> reported_result("O=S1(=O)CCCN1c1cccc(-c2ccc3cnc(Nc4cccc(-n5cccn5)c4)nn23)c1 [Example 1506]")
"> 7.00"
>>> reported_result("COc1ccc(OC)c(-c2ccc3cnc(Nc4ccc(N5CCC(N6CCOCC6)CC5)cc4OC)nn23)c1 [Example 1476]")
"6.00 to 7.00"
>>> reported_result("c1ccc(-c2ccc3cnc(NCCCN4CCOCC4)nn23)cc1 [Example 29]")
"5.00 to 6.00"
>>> reported_result("COc1ccccc1-c1c(C)c(C)c2cnc(Nc3ccc(N4CCOCC4)cc3)nn12 [Example 112]")
"> 7.00"

----------
test_system: ALK (Homo sapiens, UniProt Q9UM73)
Construct: host or cells: baculovirus expression system
Sequence (Q9UM73 19-1620): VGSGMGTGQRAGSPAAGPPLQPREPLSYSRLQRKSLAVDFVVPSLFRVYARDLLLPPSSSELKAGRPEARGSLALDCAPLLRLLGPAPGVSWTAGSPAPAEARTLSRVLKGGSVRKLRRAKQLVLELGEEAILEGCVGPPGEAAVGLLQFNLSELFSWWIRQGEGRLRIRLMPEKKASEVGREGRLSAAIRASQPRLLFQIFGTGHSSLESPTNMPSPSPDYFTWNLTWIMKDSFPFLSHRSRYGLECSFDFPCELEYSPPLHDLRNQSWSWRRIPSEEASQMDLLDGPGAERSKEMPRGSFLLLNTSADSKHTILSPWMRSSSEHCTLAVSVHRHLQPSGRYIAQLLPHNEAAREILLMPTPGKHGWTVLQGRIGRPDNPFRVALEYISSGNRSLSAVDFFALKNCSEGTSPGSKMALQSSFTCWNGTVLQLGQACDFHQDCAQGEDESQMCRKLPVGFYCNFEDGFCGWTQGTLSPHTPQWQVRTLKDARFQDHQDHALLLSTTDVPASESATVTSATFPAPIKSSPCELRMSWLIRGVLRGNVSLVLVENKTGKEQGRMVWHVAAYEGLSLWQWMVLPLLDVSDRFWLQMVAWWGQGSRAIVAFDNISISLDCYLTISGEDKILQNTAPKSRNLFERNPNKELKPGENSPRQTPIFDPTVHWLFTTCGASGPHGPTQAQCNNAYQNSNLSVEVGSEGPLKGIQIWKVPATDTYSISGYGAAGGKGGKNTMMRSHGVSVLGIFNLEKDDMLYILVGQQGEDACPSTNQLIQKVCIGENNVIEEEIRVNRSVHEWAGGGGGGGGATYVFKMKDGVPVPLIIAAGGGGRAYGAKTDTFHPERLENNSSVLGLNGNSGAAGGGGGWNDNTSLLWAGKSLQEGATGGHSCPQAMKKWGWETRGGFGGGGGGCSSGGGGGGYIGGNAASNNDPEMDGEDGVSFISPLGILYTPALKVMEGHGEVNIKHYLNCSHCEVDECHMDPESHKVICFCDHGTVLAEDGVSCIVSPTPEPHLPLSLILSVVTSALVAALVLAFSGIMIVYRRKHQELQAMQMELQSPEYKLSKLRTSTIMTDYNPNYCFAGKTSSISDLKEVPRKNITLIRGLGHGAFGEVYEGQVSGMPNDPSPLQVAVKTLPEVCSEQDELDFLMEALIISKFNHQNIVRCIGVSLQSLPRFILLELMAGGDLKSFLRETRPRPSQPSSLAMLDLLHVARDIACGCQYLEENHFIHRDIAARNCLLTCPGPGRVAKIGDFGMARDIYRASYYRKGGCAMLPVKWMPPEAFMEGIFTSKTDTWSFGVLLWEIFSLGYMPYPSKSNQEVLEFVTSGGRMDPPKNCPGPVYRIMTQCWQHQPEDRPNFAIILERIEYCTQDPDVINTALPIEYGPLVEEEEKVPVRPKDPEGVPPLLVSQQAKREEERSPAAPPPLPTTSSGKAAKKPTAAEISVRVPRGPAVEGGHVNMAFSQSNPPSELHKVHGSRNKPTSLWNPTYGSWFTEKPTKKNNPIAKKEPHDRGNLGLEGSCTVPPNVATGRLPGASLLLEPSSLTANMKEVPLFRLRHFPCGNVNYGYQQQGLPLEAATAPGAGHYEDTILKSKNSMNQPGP
experiment_summary: ALK Kinase Assay (ELISA/TRF, PLC-γ substrate)
Format: biochemical
particulars: ALK kinase inhibition, 1 μM ATP; read-out: ALK Potency
pIC50: −log10 of the molar value.
Measured pIC50, listed per entry for reference.
metric_name: pIC50

>>> reported_result("CS(=O)(=O)Nc1cccc(-c2ccc3cnc(Nc4ccc(C5CCN(CCO)CC5)cc4)nn23)c1")
"> 7.00"
>>> reported_result("COc1ccccc1-c1ccc2cnc(Nc3ccc(C4C(=O)N(C)CCN4C)cc3)nn12 (centres unmarked)")
"5.00 to 6.00"
>>> reported_result("COc1ccc(-c2ccc3cnc(Nc4ccc(C5CCN(CC(N)=O)CC5)c(OC)c4)nn23)cn1")
"> 7.00"
>>> reported_result("CN1CCN(c2ccc(Nc3ncc4ccc(C5=CCC(S(C)(=O)=O)CC5)n4n3)cc2)CC1 (centres unmarked)")
"6.00 to 7.00"
>>> reported_result("COc1cc(C2CCN(C)CC2)ccc1Nc1ncc2ccc(-c3cccc4c3OCC4)n2n1")
"> 7.00"
>>> reported_result("Cc1cc(-c2ccc3cnc(Nc4ccc(N5CCOCC5)cc4)nn23)cnc1F")
"5.00 to 6.00"
>>> reported_result("CN(C)Cc1ccccc1-c1ccc2cnc(Nc3ccc(N4CCOCC4)cc3)nn12")
"5.00 to 6.00"
>>> reported_result("CC(=O)Nc1cccc(Nc2ncc3ccc(-c4cccc(NC(=O)C(C)(C)C)c4)n3n2)c1")
"5.00 to 6.00"
>>> reported_result("CCNS(=O)(=O)c1cccc(-c2ccc3cnc(Nc4ccc(C5CCN(CC(N)=O)CC5)cc4)nn23)c1")
"> 7.00"
>>> reported_result("COc1cc(C2CCN(CC(=O)O)CC2)ccc1Nc1ncc2ccc(-c3ccccc3OC)n2n1")
"> 7.00"
>>> reported_result("COc1cc([C@@H]2CCN(CCO)C[C@@H]2O)ccc1Nc1ncc2ccc(-c3ccccc3N(C)S(C)(=O)=O)n2n1 (racemic)")
"> 7.00"
